Below, each entry is listed alongside its reported cytotoxicity at 10 µM.
# test name: Toxicity liver stage against HepG2, at 10uM
# Assay type: cell-based
# Set-up: test concentration 10 uM, cell line HepG2-A16-CD81EGFP
# condition: human, HepG2-A16-CD81EGFP cells; read-out: INHIBITION
# output: bare number, implied unit %

Example cases with answers are listed next.
CC(C)c1nc(C2CCCN2C(=O)c2ccc(C#N)cn2)no1 (stereo not given); -3.19
Cn1ccc(C(=O)N2CCCC2c2ccc3c(c2)OCCO3)cc1=O (stereo not given); 12.3
CN(Cc1ccc(Br)s1)Cn1nc(-c2ccc(F)cc2)oc1=O; 1.64
CS(=O)(=O)N1CCC(NC(=O)COc2ccccc2Cl)CC1; -1.99
CCC(=O)N1CCN(C(=O)NC2CCc3ccccc3C2)CC1 (stereo not given); -15.9

IN: What does the data say about its cytotoxicity at 10 µM? Entry: Cc1nc(N)c2ccc(C3CCCN3)nc2n1 (stereo not given)
OUT: 3.67

IN: Quick one: cytotoxicity at 10 µM of O=C(O)c1cc(NS(=O)(=O)c2ccc(Br)s2)c(F)cc1F ?
OUT: -7.1
